Tested on: Yap1 mRNA
methodSummary: Dose-dependent inhibition of human Yap1 in SNU-449 cells (Example 9, RTS36584)
Type: cell-based
appliedConditions: 500.0 nM, free uptake, approximately 48 hours
Strand notation (5' to 3'): a small letter for the sugar, then the base; units joined by * are phosphorothioate-linked, units joined directly phosphodiester-linked; [ ] holds rarer units or linkages, { } end groups; capitals alone tell only the bases. e = 2'-O-(2-methoxyethyl) (MOE); k = constrained ethyl (cEt); [5mC] = 5-methylcytosine; d = 2'-deoxy (DNA)

- substance: "1198698 (kA*kA*dG*dT*dG*dT*dA*dT*dG*dT*d[5mC]*dA*kG*eA*kA*eG) [compound 1198698]"
  targetOfAssay: "Yap1 mRNA"
  % UTC (Yap1 mRNA): "8 % UTC"
- substance: "1198877 (kT*kT*dA*dA*dA*dG*dT*dG*dT*dA*dT*kG*eT*k[5mC]*eA*kG; antisense) [compound 1198877]"
  targetOfAssay: "Yap1 mRNA"
  % UTC (Yap1 mRNA): "13 % UTC"
- substance: "1198466 (kA*kG*dA*dG*dT*dA*dT*dG*dT*dG*dG*e[5mC]*kA*eA*kT*eA; antisense) [compound 1198466]"
  targetOfAssay: "Yap1 mRNA"
  % UTC (Yap1 mRNA): "18 % UTC"
- substance: "1198874 (kA*kA*dG*dT*dG*dT*dA*dT*dG*dT*d[5mC]*kA*eG*kA*eA*kG) [compound 1198874]"
  targetOfAssay: "Yap1 mRNA"
  % UTC (Yap1 mRNA): "1 % UTC"
- substance: "1198546 (kG*kA*kA*dA*dT*dT*dG*dT*d[5mC]*dT*d[5mC]*dA*kT*kG*k[5mC]*e[5mC]) [compound 1198546]"
  targetOfAssay: "Yap1 mRNA"
  % UTC (Yap1 mRNA): "18 % UTC"
- substance: "1198371 (kA*dT*dT*dG*dT*d[5mC]*dT*d[5mC]*dA*dT*dG*k[5mC]*e[5mC]*kT*eT*kA; antisense) [compound 1198371]"
  targetOfAssay: "Yap1 mRNA"
  % UTC (Yap1 mRNA): "46 % UTC"
- substance: "1197179 (kT*kG*kG*dA*dA*dA*dT*dT*dG*dT*d[5mC]*dT*d[5mC]*kA*kT*kG; antisense) [compound 1197179]"
  targetOfAssay: "Yap1 mRNA"
  % UTC (Yap1 mRNA): "17 % UTC"

====

Test system: Yap1 mRNA
methodSummary: Dose-dependent inhibition of human Yap1 in A-431 cells (Example 8, 10,000 cells per well, RTS4814)
Format: cell-based
appliedConditions: 125.0 nM; A-431 cells
Strand notation (5' to 3'): a small letter for the sugar, then the base; units joined by * are phosphorothioate-linked, units joined directly phosphodiester-linked; [ ] holds rarer units or linkages, { } end groups; capitals alone tell only the bases. k = constrained ethyl (cEt); [5mC] = 5-methylcytosine; d = 2'-deoxy (DNA)

- substance: "1076471 (k[5mC]*kA*kT*dT*dA*dG*dA*d[5mC]*dT*dA*dG*dG*d[5mC]*kT*kT*kT; antisense) [compound 1076471]"
  % UTC (Yap1 mRNA): "29 % UTC"
- substance: "1075701 (kA*kA*kT*dT*dA*d[5mC]*dT*dA*dG*dA*dG*dG*d[5mC]*kT*kT*k[5mC]; antisense) [compound 1075701]"
  % UTC (Yap1 mRNA): "34 % UTC"
- substance: "1074452 (kT*kG*kA*d[5mC]*dT*dA*dA*dT*dG*dA*dT*dA*dG*k[5mC]*kA*k[5mC]; antisense) [compound 1074452]"
  % UTC (Yap1 mRNA): "28 % UTC"
- substance: "1074775 (kG*kG*kT*dT*dT*dA*dT*dT*dG*dT*dA*dA*dA*kA*kG*k[5mC]; antisense) [compound 1074775]"
  % UTC (Yap1 mRNA): "5 % UTC"
- substance: "1076534 (kA*k[5mC]*kT*dA*dT*dA*dA*dA*dG*d[5mC]*dA*dA*dT*kG*k[5mC]*kG; antisense) [compound 1076534]"
  % UTC (Yap1 mRNA): "48 % UTC"
- substance: "1074454 (kT*kG*kT*dG*dA*d[5mC]*dT*dA*dA*dT*dG*dA*dT*kA*kG*k[5mC]; antisense) [compound 1074454]"
  % UTC (Yap1 mRNA): "9 % UTC"
- substance: "1076340 (antisense kT*kA*kA*dT*dA*dT*d[5mC]*d[5mC]*dT*d[5mC]*dA*dT*d[5mC]*kA*kG*k[5mC]) [compound 1076340]"
  % UTC (Yap1 mRNA): "42 % UTC"
- substance: "1074580 (DNA kA*k[5mC]*k[5mC]*dA*d[5mC]*dT*dA*dT*dA*dA*dA*dG*d[5mC]*kT*kT*kA; further chemistry not given here) [compound 1074580]"
  % UTC (Yap1 mRNA): "18 % UTC"
- substance: "1074230 (antisense kA*kA*kG*dA*dA*dG*dA*d[5mC]*dT*dG*dT*d[5mC]*dG*kA*kA*kG) [compound 1074230]"
  % UTC (Yap1 mRNA): "30 % UTC"
- substance: "1074613 (DNA k[5mC]*kA*kT*dA*dG*d[5mC]*dT*dT*dA*dT*dA*dT*dT*kG*kA*kA; antisense) [compound 1074613]"
  % UTC (Yap1 mRNA): "23 % UTC"
- substance: "1075766 (kG*kG*kA*dG*dA*dA*d[5mC]*dA*d[5mC]*dA*dA*dG*dA*kG*kG*k[5mC]; antisense) [compound 1075766]"
  % UTC (Yap1 mRNA): "21 % UTC"

====

System: Yap1 mRNA
methodSummary: Antisense inhibition of human Yap1 in A-431 cells by cEt gapmers, single dose (Example 3, RTS36584)
Type: cell-based
appliedConditions: Table 34; Yap1 mRNA as percent of untreated control; 3-10-3 cEt gapmers targeting SEQ ID NO: 1 and 2; single dose
Strand notation (5' to 3'): a small letter for the sugar, then the base; units joined by * are phosphorothioate-linked, units joined directly phosphodiester-linked; [ ] holds rarer units or linkages, { } end groups; capitals alone tell only the bases. k = constrained ethyl (cEt); [5mC] = 5-methylcytosine; d = 2'-deoxy (DNA)

- substance: "1076532 (kA*kT*kT*dT*dT*dT*dA*dG*dG*d[5mC]*dA*dG*dA*k[5mC]*kG*k[5mC]; antisense) [compound 1076532]"
  YAP1 (% UTC): 12
- substance: "1074548 (kA*kT*k[5mC]*dT*dA*d[5mC]*d[5mC]*dG*dT*dA*dT*dG*d[5mC]*k[5mC]*k[5mC]*kA; antisense) [compound 1074548]"
  YAP1 (% UTC): 4
- substance: "1074388 (kG*kA*k[5mC]*dT*dT*dG*dG*d[5mC]*dA*dT*d[5mC]*dA*dG*k[5mC]*kT*k[5mC]; antisense) [compound 1074388]"
  YAP1 (% UTC): 16
- substance: "1075796 (kA*kG*kT*dA*dA*dT*dT*dA*dT*dA*dT*dA*d[5mC]*k[5mC]*k[5mC]*kA; antisense) [compound 1075796]"
  YAP1 (% UTC): 64
- substance: "1075508 (kG*kA*kA*dA*dA*dA*dG*dG*dT*dT*dT*dA*dG*kG*kG*kT; antisense) [compound 1075508]"
  YAP1 (% UTC): 84
- substance: "1074356 (antisense kG*kA*kG*dG*dG*dA*d[5mC]*dA*d[5mC]*dT*dG*dT*dA*kG*k[5mC]*kT) [compound 1074356]"
  YAP1 (% UTC): 43
- substance: "1075252 (kT*kT*kA*dA*dT*dT*dA*d[5mC]*dG*dA*dT*dT*dA*kG*kA*kT; antisense) [compound 1075252]"
  YAP1 (% UTC): 90
- substance: "1074164 (k[5mC]*k[5mC]*kA*dG*dG*d[5mC]*dG*dA*dG*d[5mC]*dG*dA*dG*kG*kG*k[5mC]; antisense) [compound 1074164]"
  YAP1 (% UTC): 135
- substance: "1074708 (antisense k[5mC]*kT*kT*dT*dA*dA*dT*dG*dG*d[5mC]*dA*dG*d[5mC]*kA*k[5mC]*kG) [compound 1074708]"
  YAP1 (% UTC): 55
- substance: "1075604 (antisense kA*kT*kA*dA*dT*dT*dA*dA*dG*d[5mC]*dT*dA*dT*k[5mC]*kA*k[5mC]) [compound 1075604]"
  YAP1 (% UTC): 81
- substance: "1074580 (DNA kA*k[5mC]*k[5mC]*dA*d[5mC]*dT*dA*dT*dA*dA*dA*dG*d[5mC]*kT*kT*kA; further chemistry not given here) [compound 1074580]"
  YAP1 (% UTC): 5
- substance: "1075668 (antisense kA*kA*kT*dT*dA*dT*dT*dG*dG*dT*dG*dA*d[5mC]*kA*k[5mC]*kT) [compound 1075668]"
  YAP1 (% UTC): 80
- substance: "1074516 (kT*kT*kA*dA*d[5mC]*dT*dG*dG*dA*dA*dA*dG*d[5mC]*kA*kG*kG; antisense) [compound 1074516]"
  YAP1 (% UTC): 22
- substance: "1075764 (k[5mC]*kT*kT*d[5mC]*dA*dA*dG*dG*dA*dA*dG*dG*dT*kG*k[5mC]*kT; antisense) [compound 1075764]"
  YAP1 (% UTC): 103
- substance: "1075572 (antisense k[5mC]*kA*kA*dT*dT*dT*dA*dA*d[5mC]*dT*dG*dT*dT*kA*k[5mC]*kA) [compound 1075572]"
  YAP1 (% UTC): 84
- substance: "1075316 (antisense kG*kT*kA*dT*dA*dT*dA*dG*dA*dT*dA*d[5mC]*d[5mC]*k[5mC]*kA*k[5mC]) [compound 1075316]"
  YAP1 (% UTC): 25
- substance: "1075476 (kT*k[5mC]*kT*dT*dA*dT*d[5mC]*d[5mC]*dT*dA*d[5mC]*dA*dG*k[5mC]*kT*kT; antisense) [compound 1075476]"
  YAP1 (% UTC): 75
- substance: "1075828 (kT*kT*kA*dG*dA*dA*dT*dA*dG*dT*dT*d[5mC]*dT*kA*k[5mC]*k[5mC]; antisense) [compound 1075828]"
  YAP1 (% UTC): 59
- substance: "1075380 (antisense kA*k[5mC]*kT*dA*dA*dA*dA*d[5mC]*dT*dG*dA*d[5mC]*dT*kG*kT*k[5mC]) [compound 1075380]"
  YAP1 (% UTC): 94
- substance: "1075060 (antisense kG*kT*kT*dT*dA*dA*d[5mC]*dA*dA*dT*d[5mC]*dT*d[5mC]*k[5mC]*k[5mC]*k[5mC]) [compound 1075060]"
  YAP1 (% UTC): 70
- substance: "1074612 (DNA kA*kT*kA*dG*d[5mC]*dT*dT*dA*dT*dA*dT*dT*dG*kA*kA*kG; further chemistry not given here) [compound 1074612]"
  YAP1 (% UTC): 12
- substance: "1075732 (kA*kA*kT*dA*dA*d[5mC]*d[5mC]*dT*d[5mC]*dG*dA*dG*dT*kG*k[5mC]*kT; antisense) [compound 1075732]"
  YAP1 (% UTC): 36
